# Test system: 415267-285-R-J2-PDC complex spheroid viability;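 also: luminescence used as stand-in measure of viable cells; spheroids exposed to compounds for one week before readout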
# protocolDescription: Anticancer human tumor 415267-285-R-J2-PDC patient-derived breast carcinoma cell line growth inhibition [POLQ]
# measurementConditions: second compound 0.1 µM; first compound 0.0316 µM; stronger effect = lower value
# Protocol: Multicellular complex tumor spheroid response to Polymerase (POL) inhibitors (novobiocin, ART-558, RP6685) in combination with a variety of drugs and investigational agents in selected tumor cell lines The POL inhibitors (novobiocin, ART-558, and RP6685) were evaluated both individually and in combination with standard of care and investigational anticancer small molecules within a complex spheroid model of solid tumors. . […]
Rule: measured viability, T/C below 80% gets Fulfilled; anything equal to or greater than 80% gets Not fulfilled.

Here are 5 compounds together with their reported answers.
compound	measuredOn	labelClass
COc1cccc(OCCCN)c1-c1cc(Nc2cnc(C#N)cn2)n[nH]1 + Cc1cccc(N(C)C(=O)C2C(O)CCN2c2nc(C)cc(C(F)(F)F)c2C#N)c1	415267-285-R-J2-PDC complex spheroid viability	Fulfilled
COc1cc2cc(C(=O)CCC(=O)O)sc2cc1OC + Nc1ccc(C#CCN(C(=O)Cc2ncc(C(F)(F)F)cc2C(F)(F)F)c2ccc(F)cc2)nn1	415267-285-R-J2-PDC complex spheroid viability	Not fulfilled
CC1COCCN1c1cc(-c2ccnn2C)c2ccnc(-c3ccn[nH]3)c2n1 (centres undefined) + COC1C(OC(N)=O)C(O)C(Oc2ccc3c(O)c(NC(=O)c4ccc(O)c(CC=C(C)C)c4)c(=O)oc3c2C)OC1(C)C	415267-285-R-J2-PDC complex spheroid viability	Fulfilled
O=c1[nH]cc(F)c(=O)[nH]1 + Nc1ccc(C#CCN(C(=O)Cc2ncc(C(F)(F)F)cc2C(F)(F)F)c2ccc(F)cc2)nn1	415267-285-R-J2-PDC complex spheroid viability	Not fulfilled
COc1cccc2c1C(=O)c1c(O)c3c(c(O)c1C2=O)CC(O)(C(=O)CO)CC3OC1CC(N)C(O)C(C)O1 (centres undefined) + COC1C(OC(N)=O)C(O)C(Oc2ccc3c(O)c(NC(=O)c4ccc(O)c(CC=C(C)C)c4)c(=O)oc3c2C)OC1(C)C	415267-285-R-J2-PDC complex spheroid viability	Fulfilled

Field: below-cutoff. Rule: recorded viability, T/C strictly less than 80%. Subject: CNCc1ccc(-c2[nH]c3cc(F)cc4c3c2CCNC4=O)cc1 + Nc1ccc(C#CCN(C(=O)Cc2ncc(C(F)(F)F)cc2C(F)(F)F)c2ccc(F)cc2)nn1 Not fulfilled

Field: below-cutoff. Rule: recorded viability, T/C strictly less than 80%. Subject: COc1cc2cc(C(=O)CCC(=O)O)sc2cc1OC + COC1C(OC(N)=O)C(O)C(Oc2ccc3c(O)c(NC(=O)c4ccc(O)c(CC=C(C)C)c4)c(=O)oc3c2C)OC1(C)C Not fulfilled

Field: below-cutoff. Rule: recorded viability, T/C strictly less than 80%. Subject: CC1COCCN1c1cc(C2(S(C)(=N)=O)CC2)nc(-c2ccnc3[nH]ccc23)n1 (centres undefined) + COC1C(OC(N)=O)C(O)C(Oc2ccc3c(O)c(NC(=O)c4ccc(O)c(CC=C(C)C)c4)c(=O)oc3c2C)OC1(C)C Not fulfilled

Field: below-cutoff. Rule: recorded viability, T/C strictly less than 80%. Subject: COc1cc(C2c3cc4c(cc3C(OC3OC5COC(C)OC5C(O)C3O)C3COC(=O)C23)OCO4)cc(OC)c1O (centres undefined) + Cc1cccc(N(C)C(=O)C2C(O)CCN2c2nc(C)cc(C(F)(F)F)c2C#N)c1 Not fulfilled
